These measurements were taken from PubChem BioAssay (NCI).

System: HCT-15 colon
Assay: NCI tumour cell line growth inhibition, 48 h; in the data active means GI50 below about 0.43 µM; inactive means the rest
Just give me one of these, please: active, inactive

O=C1c2[nH]cc(CN3CCNCC3)c2C(=O)c2c1c(O)c1ccccc1c2O ... inactive
CN(C)[C@@H]1C(=O)C(C(N)=O)=C(O)[C@@]2(O)C(=O)C3=C(O)c4c(O)cc(CN5CCc6ccccc6C5)c(Cl)c4C[C@H]3C[C@@H]12 ... active
COc1ccc(-c2oc(=O)ccc2C#Cc2cc(OC)c(OC)c(OC)c2)cc1O ... inactive
C=C(CN1CCN(c2ccccc2OC)CC1)c1ccc(C(=O)Nc2ccccc2N)cc1 ... inactive
CC1(C)N=C(N)N=C(N)N1c1cccc(C#N)c1 ... inactive

# lookup: test call for NC(=O)CCC(NC(=O)OCc1ccccc1)C(=O)OCC(=O)c1ccccc1 (stereo not drawn)
inactive

# lookup: test call for O=C(c1ccccc1Nc1ccnc(C(F)(F)F)c1)N1CCN(c2cccc(Cl)c2)CC1
inactive

# lookup: test call for C/C1=C\[C@H](C)C[C@H](C)OC(=O)C[C@H](c2ccc(O)cc2)NC(=O)[C@@H](Cc2c(Br)[nH]c3ccccc23)N(C)C(=O)[C@H](C)NC(=O)[C@@H](C)C1
inactive
